Assay system: CaAbp1-D1
Procedure details: SPOT peptide array binding signal intensity (averaged, normalized) (arbitrary units (background-subtracted, floor 0; scale differs between SH3 domains)); higher = stronger binding of the SH3 domain to the peptide
# SPOT peptide array binding signal intensity per entry
Property name: SPOT peptide array binding signal intensity

[
  {
    "Binder": "QTMRQAPKRPDADVA",
    "Val": 144
  },
  {
    "Binder": "QFDLKMPSKPIHNLK",
    "Val": "≤ 0"
  },
  {
    "Binder": "PPPPPPPPPPPLPQS",
    "Val": 4.5
  },
  {
    "Binder": "LLGRKRPVMERVVDI",
    "Val": 21
  },
  {
    "Binder": "MPAPPPPPPPPPGAF",
    "Val": 18.5
  },
  {
    "Binder": "KWVRRPKLMTPLTFS",
    "Val": 498
  },
  {
    "Binder": "YSRKKLPVVLSKMTL",
    "Val": 444
  }
]
